Assay: Plasma protein binding, rapid equilibrium dialysis
Assay type: in vitro ADME, mouse
Conditions: mouse, 4 h, 10 μM, pH 7.4
Numbered stars: 1 amine (or outer) side, 2 acyl side, 3 side chain; on linkers, the order of the positions; unused ones are H or OH. Bridge positions count the residues as written; N and C are the ends. Square brackets hold non-standard residues; d marks the D form. Peptide text beside a SMILES is read from it. * marks the point of attachment. Phe(3-CF3) = N[C@@H](Cc1cccc(C(F)(F)F)c1)C(=O)O; Piperazine(2S-CO,4-Me) = CN1CCN[C@H](C(=O)O)C1; Phe(3-Cl) = N[C@@H](Cc1cccc(Cl)c1)C(=O)O; Phe(3-Me) = Cc1cccc(C[C@H](N)C(=O)O)c1; X4 = O=C1CN([*:1])[C@H](C(=O)[*:2])CN1; NH(4-Cl-2-F-phenyl) = Fc1cc(Cl)ccc1N*; Pro(4R-Me) = C[C@H]1CN[C@H](C(=O)O)C1; Hyp = O=C(O)[C@@H]1C[C@@H](O)CN1; aThr = C[C@H](O)[C@H](N)C(=O)O; Pip = O=C(O)[C@@H]1CCCCN1; CO = O=C([*:1])[*:2]
Quantity: Mouse (%)
Return type: number; implicit unit %.

The cases that follow already have their Mouse on record.
Cc1cccc(C[C@H](NC(=O)Nc2ccc(Cl)cc2F)C(=O)N[C@H]2COC(=O)[C@@H]3C[C@@H](C)CN3C(=O)[C@H](C)NC(=O)[C@@H]3CCCCN3C(=O)[C@@H]3C[C@H](N)CN3C2=O)c1 = 99.6
C[C@@H]1C[C@H]2C(=O)OC[C@H](NC(=O)[C@H](Cc3cccc(C(F)(F)F)c3)NC(=O)Nc3ccc(Cl)cc3F)C(=O)N3CCC[C@H]3C(=O)N3CCN(C)C[C@H]3C(=O)N[C@@H](C)C(=O)N2C1 [Compound 18] ({NH(4-Cl-2-F-phenyl)-CO}-[Phe(3-CF3)]SP[Piperazine(2S-CO,4-Me)]A[Pro(4R-Me)]; ester 2-C) = 99.2
Cc1cccc(C[C@H](NC(=O)Nc2ccc(Cl)cc2F)C(=O)N[C@@H]2C(=O)N3C[C@H](O)C[C@H]3C(=O)N3CCCC[C@H]3C(=O)N[C@@H](C)C(=O)N3C[C@H](C)C[C@H]3C(=O)O[C@H]2C)c1 [Compound 6] ({NH(4-Cl-2-F-phenyl)-CO}-[Phe(3-Me)][aThr][Hyp][Pip]A[Pro(4R-Me)]; ester 2-C) = 99.5
Cc1cccc(C[C@H](NC(=O)Nc2ccc(Cl)cc2F)C(=O)N[C@@H]2C(=O)N3C[C@H](O)C[C@H]3C(=O)N3CCN(C)C[C@H]3C(=O)N[C@@H](C)C(=O)N3C[C@H](C)C[C@H]3C(=O)O[C@H]2C)c1 [Compound 31] ({NH(4-Cl-2-F-phenyl)-CO}-[Phe(3-Me)][aThr][Hyp][Piperazine(2S-CO,4-Me)]A[Pro(4R-Me)]; ester 2-C) = 96.9

**Q:** // lookup Mouse for Cc1cccc(C[C@H](NC(=O)Nc2ccc(Cl)cc2F)C(=O)N[C@H]2COC(=O)[C@@H]3C[C@@H](C)CN3C(=O)[C@H](C)NC(=O)[C@@H]3CCCCN3C(=O)[C@@H]3C[C@@H](O)CN3C2=O)c1
**A:** 99.7

**Q:** Query C[C@@H]1C[C@H]2C(=O)O[C@@H](C)[C@H](NC(=O)[C@H](Cc3cccc(Cl)c3)NC(=O)Nc3ccc(Cl)cc3F)C(=O)N3CCC[C@H]3C(=O)N3CCN(C)C[C@H]3C(=O)N[C@@H](C)C(=O)N2C1 [Compound 33] ({NH(4-Cl-2-F-phenyl)-CO}-[Phe(3-Cl)][aThr]P[Piperazine(2S-CO,4-Me)]A[Pro(4R-Me)]; ester 2-C) next
**A:** 99.5

**Q:** Now the compound Cc1cccc(C[C@H](NC(=O)Nc2ccc(Cl)cc2F)C(=O)N[C@@H]2C(=O)N3CCC[C@H]3C(=O)N3CC(=O)NC[C@H]3C(=O)N[C@@H](C)C(=O)N3C[C@H](C)C[C@H]3C(=O)O[C@H]2C)c1 [Compound 20] ({NH(4-Cl-2-F-phenyl)-CO}-[Phe(3-Me)][aThr]P[X4]A[Pro(4R-Me)]; ester 2-C)
**A:** 98.7
